assay: Pharmacokinetics of single and repeated oral doses of PDS in healthy male subjects; format: in vivo, human; settings: male, human, plasma, po, 800 mg, 800 mg q.i.d. group, Day 1 (single oral administration), n = 6; mean
ENDPOINT NAME: Cmax

### Prompt If you can, please state the reported Cmax value of O=S(=O)([O-])CCCS(=O)(=O)[O-].[Na+].[Na+] .
### Response 2680 ng/mL

---

experiment: Pharmacokinetics of PDS after single and multiple oral administration in AA amyloidosis patients; format: in vivo; conditions: human, plasma, po, 800 mg BID, Month 24 repeated oral doses, n = 4, mean, read-out: AUC(0-tlast)
ENDPOINT NAME: AUC(0-t) (ng·h/mL)
The reply should contain only the number, in ng·h/mL.

### Prompt If you can, please state the reported AUC(0-t) value of O=S(=O)([O-])CCCS(=O)(=O)[O-].[Na+].[Na+] .
### Response 21200

---

test: Pharmacokinetic profile of a single oral dose of 800 mg PDS in subjects with varying degrees of renal impairment vs healthy volunteers; assay type: in vivo; conditions: human, plasma, single oral 800 mg, Severe renal impairment, GFR <30 mL/min, n = 6, mean
ENDPOINT NAME: Cmax (ng/mL)
The reply should contain only the number, in ng/mL.

### Prompt If you can, please state the reported Cmax value of O=S(=O)([O-])CCCS(=O)(=O)[O-].[Na+].[Na+] [PDS] .
### Response 2210

---

assay: Pharmacokinetics of single and repeated oral doses of PDS in healthy male subjects; format: in vivo, human; conditions: male, human, plasma, po, 800 mg, 800 mg q.i.d. group, Day 1 (single oral administration), n = 6; mean
ENDPOINT NAME: AUC(0-t) (µg·h/mL)
The reply should contain only the number, in µg·h/mL.

### Prompt If you can, please state the reported AUC(0-t) value of O=S(=O)([O-])CCCS(=O)(=O)[O-].[Na+].[Na+] .
### Response 5.18

---

experiment: Pharmacokinetics of PDS after single and multiple oral administration in AA amyloidosis patients; format: in vivo; settings: human, plasma, po, 800 mg, Dose 800 (mg BID), Month 0 single oral dose, n = 5, mean, read-out: AUC(0-tlast)
ENDPOINT NAME: AUC(0-t)
Returns: string containing the number followed by the unit.

### Prompt If you can, please state the reported AUC(0-t) value of O=S(=O)([O-])CCCS(=O)(=O)[O-].[Na+].[Na+] .
### Response 9810 ng·h/mL

---

assay: Pharmacokinetics of single and repeated oral doses of PDS in healthy male subjects; format: in vivo, human; details: male, human, plasma, po, 1600 mg, 1600 mg t.i.d. group, Day 1 (single oral administration), n = 6; median
ENDPOINT NAME: Tmax (min)
The reply should contain only the number, in min.

### Prompt If you can, please state the reported Tmax value of O=S(=O)([O-])CCCS(=O)(=O)[O-].[Na+].[Na+] .
### Response 22.5

---

assay: Pharmacokinetics of single rising oral doses of PDS and food effect in healthy male subjects; format: in vivo, human; settings: male, human, plasma, po, 1600 mg, single oral 1600 mg, Fed (high-fat meal), healthy male subjects, n = 8; mean
ENDPOINT NAME: AUC(0-inf) (ng·h/mL)
The reply should contain only the number, in ng·h/mL.

### Prompt If you can, please state the reported AUC(0-inf) value of O=S(=O)([O-])CCCS(=O)(=O)[O-].[Na+].[Na+] .
### Response 6320

---

test: Pharmacokinetics of single rising oral doses of PDS and food effect in healthy male subjects; type: in vivo, human; conditions: male, human, plasma, po, 100 mg, single oral 100 mg, healthy male subjects, n = 6; mean
ENDPOINT NAME: Cmax
Returns: string containing the number followed by the unit.

### Prompt If you can, please state the reported Cmax value of O=S(=O)([O-])CCCS(=O)(=O)[O-].[Na+].[Na+] .
### Response 99.5 ng/mL

---

Test: Pharmacokinetics of single rising oral doses of PDS and food effect in healthy male subjects
Assay type: in vivo, human
Conditions: male, human, plasma, po, 100 mg, single oral 100 mg, healthy male subjects, n = 6; mean
Experimental: In the following examples, terms are as defined below. […] The safety, tolerability and pharmacokinetics of PDS following single oral administration in healthy male adult volunteers is determined. The effect of food on the pharmacokinetics of PDS is also determined. […] Plasma concentrations of PDS are determined using validated HPLC methods. […]
ENDPOINT NAME: AUC(0-t) (ng·h/mL)
The reply should contain only the number, in ng·h/mL.

### Prompt If you can, please state the reported AUC(0-t) value of O=S(=O)([O-])CCCS(=O)(=O)[O-].[Na+].[Na+] [PDS] .
### Response 240

---

experiment: Pharmacokinetics of single and repeated oral doses of PDS in healthy male subjects; format: in vivo, human; details: male, human, plasma, po, 1600 mg, 1600 mg q.i.d group, Day 1 (single oral administration), n = 6; mean
ENDPOINT NAME: Cmax (ng/mL)
The reply should contain only the number, in ng/mL.

### Prompt If you can, please state the reported Cmax value of O=S(=O)([O-])CCCS(=O)(=O)[O-].[Na+].[Na+] [PDS] .
### Response 2800

---

assay: Pharmacokinetics of single rising oral doses of PDS and food effect in healthy male subjects; assay type: in vivo, human; conditions: male, human, plasma, po, 800 mg, single oral 800 mg, healthy male subjects, n = 10; mean
ENDPOINT NAME: AUC(0-inf) (ng·h/mL)
The reply should contain only the number, in ng·h/mL.

### Prompt If you can, please state the reported AUC(0-inf) value of O=S(=O)([O-])CCCS(=O)(=O)[O-].[Na+].[Na+] [PDS] .
### Response 4550

---

assay: Pharmacokinetics of single rising oral doses of PDS and food effect in healthy male subjects; type: in vivo, human; conditions: male, human, plasma, po, 1600 mg, single oral 1600 mg, Fed (high-fat meal), healthy male subjects, n = 8; mean
ENDPOINT NAME: Cmax (ng/mL)
The reply should contain only the number, in ng/mL.

### Prompt If you can, please state the reported Cmax value of O=S(=O)([O-])CCCS(=O)(=O)[O-].[Na+].[Na+] .
### Response 563

---

experiment: Pharmacokinetics of single rising oral doses of PDS and food effect in healthy male subjects; assay type: in vivo, human; conditions: male, human, plasma, po, 800 mg, single oral 800 mg, healthy male subjects, n = 10; mean
ENDPOINT NAME: AUC(0-t)
Returns: string containing the number followed by the unit.

### Prompt If you can, please state the reported AUC(0-t) value of O=S(=O)([O-])CCCS(=O)(=O)[O-].[Na+].[Na+] [PDS] .
### Response 4840 ng·h/mL

---

assay: Pharmacokinetics of single rising oral doses of PDS and food effect in healthy male subjects; format: in vivo, human; details: male, human, plasma, po, 1600 mg, single oral 1600 mg, Fasted, healthy male subjects, n = 8; mean
ENDPOINT NAME: Cmax (ng/mL)
The reply should contain only the number, in ng/mL.

### Prompt If you can, please state the reported Cmax value of O=S(=O)([O-])CCCS(=O)(=O)[O-].[Na+].[Na+] .
### Response 6460

---

assay: Pharmacokinetics of PDS after single and multiple oral administration in AA amyloidosis patients; format: in vivo; conditions: human, plasma, po, 400 mg, Dose 400 (mg BID), Month 0 single oral dose, n = 2, mean, read-out: AUC(0-12)
ENDPOINT NAME: AUC(0-t) (ng·h/mL)
The reply should contain only the number, in ng·h/mL.

### Prompt If you can, please state the reported AUC(0-t) value of O=S(=O)([O-])CCCS(=O)(=O)[O-].[Na+].[Na+] .
### Response 7410

---

test: Pharmacokinetics of PDS after single and multiple oral administration in AA amyloidosis patients; type: in vivo; conditions: human, plasma, Dose 800 (mg BID), Month 0 single oral dose, n = 5, mean
ENDPOINT NAME: Tmax

### Prompt If you can, please state the reported Tmax value of O=S(=O)([O-])CCCS(=O)(=O)[O-].[Na+].[Na+] .
### Response 2.95 h

---

assay: Pharmacokinetics of single rising oral doses of PDS and food effect in healthy male subjects; type: in vivo, human; settings: male, human, plasma, po, 1600 mg, single oral 1600 mg (rising dose part), healthy male subjects, n = 5; mean
ENDPOINT NAME: Cmax (ng/mL)
The reply should contain only the number, in ng/mL.

### Prompt If you can, please state the reported Cmax value of O=S(=O)([O-])CCCS(=O)(=O)[O-].[Na+].[Na+] .
### Response 4760
